- Test system: KK-Ay/Ta Jcl mice (animal models for hypertriglyceridemia and hyper-free fatty acidemia)
- TEST_PROTOCOL: Serum free fatty acid concentration in KK-Ay/Ta Jcl mice fed compound-supplemented CE-2 feed (NEFA C-Test)
- Type: in vivo
- EXPERIMENTAL_SETUP: KK-Ay/Ta Jcl male mice; 1% by weight in CE-2 feed ad libitum; serum after 18 h fast, 10th-11th day; mean ± standard error (n=5); Group 1 (CE-2 only) 1.12 ± 0.05
MEASUREMENT_TYPE: Free Fatty Acid (serum concentration) (mEq/l)

1. O=C(O)[C@@H]1C[C@@H](O)CN1 [hydroxyproline, trans-4-hydroxy-L-proline] : 0.84
2. CCCCCCCC/C=C\CCCCCCCCOC(=O)[C@@H]1C[C@@H](OC(C)=O)CN1C(C)=O (relative stereo) [diacetylhydroxyproline oleyl ester] : 1.00
3. CC(=O)N1C[C@H](O)C[C@H]1C(=O)O [N-acetylhydroxyproline, trans-N-acetyl-4-hydroxy-L-proline] : 0.77
4. CCOC(=O)[C@@H]1C[C@@H](O)CN1 [hydroxyproline ethyl ester, trans-4-hydroxy-L-proline ethyl ester] : 0.68

The values you see were collected from patent US20070167512A1.
